Provenance of the data: a melting point compilation (Tetko et al.; mined from patent text by program, amines drawn as free bases though some values may be those of a salt)

Exercise: for every item that follows, state its recorded melting point.

Given item `Cc1c(N)cc(Cl)cc1N` , the value recorded as its melting point is 75 to 77 °C

Given item CN(C)[C@@H]1Cc2c(O)cccc2C[C@H]1O (relative stereo) , the value recorded as its melting point is 179 to 183 °C

Given item `CCc1nc(/C=C/c2cn(-c3ccccc3)nc2OCc2ccc(OCc3nc(-c4ccc(CC(=O)O)cc4)oc3C)c(OC)c2)c(C)s1` , the value recorded as its melting point is 198 to 199 °C

Given item `O=C(Nc1ccccc1)c1ccc(OC(F)(F)F)c(Nc2cccc(C(F)(F)F)c2)c1` , the value recorded as its melting point is 129 to 130 °C

Given item `CCc1nc2cc(COC)c(Cl)cc2n1-c1ccc(CCOC(=O)NS(=O)(=O)c2ccc(C)cc2)cc1` , the value recorded as its melting point is 174 °C

----------
Exercise: for every item that follows, state its recorded melting point.

Given item `N#Cc1ccc(OCc2ccccc2)c(O)c1` , the value recorded as its melting point is 101 °C

Given item `CCn1c(=O)c2[nH]c(C(F)=Cc3ccccc3)nc2n(CC)c1=O` , the value recorded as its melting point is > 280 °C

Given item O=C(CBr)C(O)(CBr)c1ccc(F)cc1 (stereo not given) , the value recorded as its melting point is 90 °C

Given item `O=C(Cn1sc2ccccc2c1=O)N1CCN(C(=O)Oc2ccc([N+](=O)[O-])cc2)CC1` , the value recorded as its melting point is 114 to 118 °C

Given item NS(=O)(=O)c1cc(C(=O)O)cc(SCC(Br)CBr)c1Cc1ccccc1 (stereo not given) , the value recorded as its melting point is 205 to 207 °C

Given item `Cc1ccc(-c2[nH]c(-c3ccncc3)nc2C(=O)Nc2nccs2)cc1` , the value recorded as its melting point is > 250 °C

Given item `CC(C)(C)Nc1cc(NC(C)(C)C)nc(N2CCNCC2)n1` , the value recorded as its melting point is 135 to 138 °C

Given item `CN(C)C(=O)N1CCc2ccc(S(N)(=O)=O)cc2CC1` , the value recorded as its melting point is 192 to 193 °C

Given item CC[C@]12CC[C@H]3[C@@H](CC(C)C4=CC(=O)CC[C@@H]43)[C@@H]1CCC2=O (stereo not given in full) , the value recorded as its melting point is 141 to 149 °C

Given item `CCOC(=O)CNc1ncccc1NC(=O)c1ccc(F)cc1` , the value recorded as its melting point is 127 to 128 °C

Given item CC1Cc2ccc([Si](C)(C)C)c(S(N)(=O)=O)c2S1(=O)=O (stereo not given) , the value recorded as its melting point is 171 to 172 °C

Given item O=c1ccn(CCOCc2ccccc2)c(C(O)c2ccccc2)c1OCc1ccccc1 (stereo not given) , the value recorded as its melting point is 154 to 155 °C

Given item `COc1cc(C)c(C(=O)c2c(Cl)nc(Cl)c(C(C)=O)c2C(F)(F)F)c(OC)c1OC` , the value recorded as its melting point is 109 to 112 °C

Given item `O=C(O)C=Cc1cc([N+](=O)[O-])ccc1Br` , the value recorded as its melting point is 185 °C

Given item `CCCCn1ncc(/C=C(\Cc2cc3c(cc2OC)CCO3)C(=O)O)c1-c1ccc(Cl)cc1OCc1c(Cl)cccc1C(=O)O` , the value recorded as its melting point is 114 to 116 °C

----------
Exercise: for every item that follows, state its recorded melting point.

Given item `CCOC(=O)c1ccc(OCc2ccc(C3CCN(C(=O)OC(C)(C)C)CC3)cn2)cc1F` , the value recorded as its melting point is 92 to 95 °C

Given item `CCNc1nc(CC)c(C(=O)c2ccc(Cl)c([N+](=O)[O-])c2)s1` , the value recorded as its melting point is 149 to 152 °C

Given item CC(C)(C)OC(=O)N[C@@H]1CN[C@H]2CCCO[C@H]21 (relative stereo) , the value recorded as its melting point is 110 to 111 °C

Given item `O=S1(=O)N2CN3CN1CP(C3)C2` , the value recorded as its melting point is 274 to 275 °C

Given item CC12CCC(C(=O)Nc3ccc(CC#N)cc3)(OC1=O)C2(C)C (centres undefined) , the value recorded as its melting point is 147 to 152 °C

Given item `CCOC(=O)Nc1csc2cc(OCc3ccccc3)ccc12` , the value recorded as its melting point is 129 to 130 °C

Given item `CCOC(=O)c1oc(-c2ccc(Cl)cc2)cc(=O)c1Br` , the value recorded as its melting point is 146 to 149 °C

Given item `Cc1cc(N2CCC=C(C(N)=O)C2)c2cccc(-c3ccc(Cl)cc3Cl)c2n1` , the value recorded as its melting point is 230 to 232 °C

Given item CCN1CC2CCCC2C1=C[N+](=O)[O-] (centres undefined) , the value recorded as its melting point is 86 °C

Given item `Cc1cccc(Cl)c1C(=O)N[C@@H](Cc1ccc(-c2c(C(F)(F)F)n(C)c(=O)n(C)c2=O)cc1)C(=O)O` , the value recorded as its melting point is 243 to 247 °C

Given item COC(=O)c1nn(C2CCCCO2)cc1NC(=O)c1cccc(C)n1 (centres undefined) , the value recorded as its melting point is 100 to 102 °C

Given item `COC(=O)c1csc(-c2snnc2-c2ccccc2)n1` , the value recorded as its melting point is 124 °C

Given item `O=C(CCC(=O)N(CCO)CCO)N(CCO)CCO` , the value recorded as its melting point is 89 to 91 °C

Given item `CC(C)(C)c1cc(Nc2ccccc2C=O)cc(C(C)(C)C)c1O` , the value recorded as its melting point is 105 to 107 °C

----------
Exercise: for every item that follows, state its recorded melting point.

Given item CC1CN(c2c(F)cc3c(=O)c(C(=O)O)cn(C4CC4)c3c2F)CC1NC(=O)OC(C)(C)C (configuration not stated) , the value recorded as its melting point is 230 to 231 °C

Given item `CCOC(=O)c1cn(-c2ccc(F)cc2)c2cc(F)c(F)c(C)c2c1=O` , the value recorded as its melting point is 256 to 259 °C

Given item CC(=O)c1ccc(C2=CCC(C)CC2)cc1 (configuration not stated) , the value recorded as its melting point is 50 to 52 °C

Given item COc1cc2c(cc1OC)N(N)C(=O)C(C(=O)OC(C)(C)C)C2 (configuration not stated) , the value recorded as its melting point is 155 to 157 °C

Given item `Nc1nc(-c2ccco2)c(C(=O)C2CCOCC2)s1` , the value recorded as its melting point is 184 to 188 °C

Given item O=S(=O)(c1ccccc1)c1cncc(OC2SCC(O)C(O)C2O)c1 (configuration not stated) , the value recorded as its melting point is 86 °C

Given item `CC[C@@H](c1ccccc1)N(Cc1ccc(C(=O)O)cc1)S(=O)(=O)c1ccc(F)c(F)c1` , the value recorded as its melting point is 108 to 109 °C

Given item `CC(=Cc1cccc2ccccc12)[N+](=O)[O-]` , the value recorded as its melting point is 64 to 67 °C

Given item `O=Cc1cc2c(cc1O)OCCO2` , the value recorded as its melting point is 114 to 115 °C

Given item CC(C)(C)OC(=O)N1CCN2C(=O)N(c3cc(Cl)cc(Cl)c3)C(=O)C2(Cc2ccc(Br)cc2)C1 (configuration not stated) , the value recorded as its melting point is 79.5 °C

Given item `O=C(O)CCC(=O)c1ccc(NC(=O)c2ccccc2F)cc1` , the value recorded as its melting point is 191 to 193 °C

Given item `Nc1nc2ccccc2c2c1ncn2CCCCS(=O)(=O)c1ccccc1` , the value recorded as its melting point is 175 to 177 °C

Given item `CS(=O)(=O)N1CCC(CCC(=O)c2ccc3c(c2)CCN(Cc2ccccc2)CC3)CC1` , the value recorded as its melting point is 134 to 137 °C

Given item `O=C(Nc1cccc2c1C(=O)OC2=O)c1ccc(Cl)s1` , the value recorded as its melting point is 195 °C

Given item `Clc1nc(-c2ccco2)nc2ccccc12` , the value recorded as its melting point is 116 to 118 °C

Given item CCN(CCc1ccc(Nc2ncc3c(n2)-c2ccccc2C(c2cccc(Br)c2)C3)cc1)C(C)C (configuration not stated) , the value recorded as its melting point is 67 to 69 °C

Given item `O=C(O)CCCc1ccc(-c2ccc(F)cc2Cl)cc1` , the value recorded as its melting point is 81 to 82 °C

Given item `CCN(CC)C(=O)CCc1nc(-c2ccccc2)nc2c(C)cccc12` , the value recorded as its melting point is 80 °C

Given item `CCc1cc(NC2=NCCN2C(C)=O)n(C)n1` , the value recorded as its melting point is 160 to 162 °C

Given item `NC(=O)CCCCCCBr` , the value recorded as its melting point is 84 °C

Given item `CCOC(=O)c1c(C(F)F)nc(C(F)(F)F)c(C(=O)OCC)c1N` , the value recorded as its melting point is 29 to 30 °C

Given item `COCCOc1ccccc1S(=O)(=O)NC(=O)Nc1nc(C)nc(OC)n1` , the value recorded as its melting point is 134 to 138 °C

Given item `N#Cc1ccc2[nH]c3ccccc3c2c1` , the value recorded as its melting point is 180 to 181 °C

Given item `CS(=O)(=O)c1ccc(-c2nn(Cc3ccncc3)c(=O)cc2-c2ccc(F)cc2)cc1` , the value recorded as its melting point is 253 to 254 °C

Given item `Cc1cc(C)cc(P(=O)(c2cc(C)cc(C)c2)c2ccc3ccccc3c2-c2c(P(=O)(c3cc(C)cc(C)c3)c3cc(C)cc(C)c3)ccc3ccccc23)c1` , the value recorded as its melting point is 287 to 290 °C

Given item `CN(C)Cc1ccccc1-c1ccc(C(=O)N2Cc3ccc(C(=O)NCc4cccnc4)n3Cc3ccccc32)cc1` , the value recorded as its melting point is 95 to 104 °C

Given item `CCCCCCCCCCCCCCCC(=O)Nc1ccc(O)c(C(C)=O)c1` , the value recorded as its melting point is 120 to 122 °C

Given item `CCOC(=O)COc1ccc(NC(=O)OCc2ccccc2)cc1` , the value recorded as its melting point is 85 to 86 °C

Given item `CCCCn1c(=O)c2nn(S(=O)(=O)c3cc(Cl)c(Cl)s3)cc2n(CCCC)c1=O` , the value recorded as its melting point is 163 to 166 °C

Given item `CCCCCCCCCCCCNC(=O)c1cc(-c2ccc(OC)cc2)c(OCC(=O)O)c(-c2cccc(Cl)c2)c1` , the value recorded as its melting point is 114 to 117 °C

Given item Cc1cc(C(=O)NCCO)ncc1C(c1cc(F)ccc1F)S(=O)(=O)c1ccc(F)cc1 (configuration not stated) , the value recorded as its melting point is 153 to 154 °C

Given item `CC(C)(C#N)c1ccc(C(=O)CCCCl)cc1` , the value recorded as its melting point is 79 to 80 °C
